Target: NADPH oxidase 5 (Homo sapiens) (UniProt Q96PH1)
Sequence (Q96PH1 whole entry, looked up): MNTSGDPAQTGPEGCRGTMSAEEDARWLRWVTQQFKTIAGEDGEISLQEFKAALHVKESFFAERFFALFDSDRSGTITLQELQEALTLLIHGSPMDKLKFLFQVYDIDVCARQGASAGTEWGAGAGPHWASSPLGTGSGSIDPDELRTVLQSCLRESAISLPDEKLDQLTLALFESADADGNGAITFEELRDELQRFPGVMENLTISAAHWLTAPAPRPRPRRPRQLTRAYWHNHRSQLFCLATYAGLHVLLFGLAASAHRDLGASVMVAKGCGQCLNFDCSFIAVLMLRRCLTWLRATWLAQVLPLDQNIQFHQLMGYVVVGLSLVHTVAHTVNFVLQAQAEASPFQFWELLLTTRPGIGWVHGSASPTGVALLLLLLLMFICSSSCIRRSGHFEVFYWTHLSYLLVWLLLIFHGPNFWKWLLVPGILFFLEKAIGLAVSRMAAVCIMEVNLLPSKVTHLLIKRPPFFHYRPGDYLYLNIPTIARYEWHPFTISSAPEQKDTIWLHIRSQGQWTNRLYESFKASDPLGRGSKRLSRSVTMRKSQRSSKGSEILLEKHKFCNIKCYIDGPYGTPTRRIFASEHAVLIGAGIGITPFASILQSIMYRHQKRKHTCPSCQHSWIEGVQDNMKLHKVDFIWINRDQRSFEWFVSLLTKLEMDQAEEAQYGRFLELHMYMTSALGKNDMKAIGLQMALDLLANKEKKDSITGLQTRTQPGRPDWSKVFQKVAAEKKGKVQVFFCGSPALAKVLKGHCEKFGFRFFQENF
Assay: NOX5-dependent H2O2 signal modulators, primary screen, NOX inhibitor project, cell-based, HEK293-NOX5, Amplex Red fluorescence (AID 1161)
Conditions: HEK293-NOX5, ionomycin, 45 min, higher = more signal
We use -2 as the dividing line for z-score: on or above the line is condition met, below is condition not met.

Answered cases to consult:
Compound	Assigned Class
O=C1C2C=CC(C(O)c3ccc(F)cc3)N(n3cnnc3)C2C(=O)N1Cc1ccccc1 (configuration not stated)	condition not met
COC(=O)[C@@]1(Cc2ccccc2)[C@H]2c3cc(C(=O)N(C)C)n(Cc4c(CO)[nH]cc(C)c4=O)c3C[C@H]2CN1C(=O)c1ccccc1	condition met
CC(=O)NCCCC[C@@H]1NC(=O)[C@@H]2C[C@H](C(=O)NCCCC[N+](C)(C)C)[C@H](c3ccc(O)cc3)N2C1=O	condition not met
C=CCC(OC(C)=O)[C@@H]1[C@@H](N(Cc2cc3ccccc3o2)C(=O)c2ccc(C)cc2)c2cc(OCCCO)ccc2N1C(=O)Cc1ccc(OC)cc1 (some centres not stated)	condition met
C=CCNC(=O)[C@H]1[C@@H]2C(=O)O[C@@H](c3ccccc3)[C@@H](c3ccccc3)N2[C@@H](c2ccc(O)cc2)[C@]12C(=O)Nc1ccc(C#CC3(O)CCCCCC3)cc12	condition met

Identify whether the reported z-score of the following compound is -2 or greater: `COCCOC(=O)N1C(=O)[C@@]2(c3cc(C#CCCO)ccc31)[C@H](C(=O)Nc1nc3ccccc3s1)[C@H]1C(=O)O[C@H](c3ccccc3)[C@H](c3ccccc3)N1[C@@H]2c1ccccc1OCCO`
condition met

Next compound up: `O=C(NCc1ccccc1)[C@@H]1c2ccccc2C(=O)N(Cc2ccccc2C(F)(F)F)[C@H]1c1ccc(CO)cc1`
condition met

* * *

Molecular target: Neurogenic locus notch homolog protein 2 (Homo sapiens)
Experiment: Notch2 binders on small-molecule microarrays, primary screen, biochemical, small-molecule microarray, 635 nm fluorescence, stem cell growth factors (AID 1073)
Conditions: Notch2 binding, higher = more signal
Observation Type: composite z-score
Reply with the value as a number alone.

Compound	Measured Number
COC(=O)c1ccc([C@H](NC(=O)c2ccco2)[C@]2(C)C[C@H]2C2CCCCC2)cc1	0.329

Reported composite z-score for C=CCC(OC(C)=O)[C@@H]1[C@@H](N(Cc2cc3ccccc3o2)C(=O)c2ccc(C)cc2)c2cc(OCCCO)ccc2N1C(=O)Cc1ccc(OC)cc1 (some centres undefined) : what is it?
0.0335

Next compound up: `CC(C)OC(=O)C=C1C[C@@H](c2ccc(C(F)(F)F)cc2)O[C@@H](c2ccc(C(F)(F)F)cc2)O1`
-0.316

Next compound up: `NC(=O)NCC#Cc1ccc2c(c1)[C@]1(C(=O)N2)[C@H](C(=O)O)[C@H]2C(=O)O[C@H](c3ccccc3)[C@H](c3ccccc3)N2[C@@H]1c1ccc(OCCO)cc1`
0.247

* * *

Assay: HepG2 cell viability effects, profiling panel, calcein-AM fluorescence, 48 h, basal (AID 1164); also: test concentration not given here
Details: higher = more signal
Below, each of the molecules is paired with its reported z-score value.
Reply with the value as a number alone.

Example entries and their recorded answers appear below.
In [3]: df
Out[3]:
                                   molecule  observation_type  measured_number
0  [N-]=[N+]=NCc1ccccc1C[C@]1(C(N)=O)N=C(c2ccc(OCCCO)cc2)O[C@H]1c1ccccc1           z-score           -0.284
1  OCCCC1=CC(c2ccc(CN3CCCC3)cc2)N(Cc2sc3ccccc3c2Cl)CC1 (stereo not drawn)           z-score            0.212

Please turn your attention to the following entry.
Reported z-score for `COCCCNC(=O)[C@@]1(Cc2ccccc2CN=[N+]=[N-])N=C(c2ccc(OCCCO)cc2)O[C@H]1c1ccccc1` : what is it?
-0.798

* * *

Target: Streptavidin (Streptomyces avidinii)
Test: streptavidin binders on small-molecule microarray, primary screen, artefact control for SMM compound annotation, biophysical, 635/667 nm fluorescence (AID 1147);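 also: signal reflects streptavidin binding to arrayed compounds as a control protein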
Details: streptavidin binding, higher = more signal
We use -0.4 as the dividing line for composite z-score: on or above the line is yes, below is no.

Answered cases to consult:
Molecule	Assigned Class
O=C(NCCCCCNC(=O)/C(Cc1ccccc1)=N/O)OCc1ccccc1	yes
O[C@@H](Cc1ccccc1)[C@@H](/C=C/C1CC1)N(CC#Cc1ccccc1)Cc1cccc(Cl)c1	no
O=C1O[C@H](c2ccccc2)[C@H](c2ccccc2)N2[C@H]1[C@@H](C(=O)NC[C@H](O)c1ccccc1)[C@]1(C(=O)Nc3ccc(C#CCCO)cc31)[C@H]2c1ccc(OCCO)cc1	yes
C=CC1c2cc(O)c(OC)cc2CCN1Cc1cc2c(cc1Br)OCO2 (stereo not drawn)	yes

Identify whether the reported composite z-score of the following molecule is -0.4 or greater: `CCCNC(=O)[C@@H]1c2ccccc2C(=O)N(C(C)C)[C@H]1c1ccc(CO)cc1`
yes

Next molecule up: `CCOC(=O)C[C@H]1[C@H](OC(=O)c2ccccc2-c2ccccc2)[C@@H](NC(=O)C2CCCCC2)c2cc(OCCCO)ccc2N1C(=O)Cc1ccc(OC)cc1`
yes

Next molecule up: `CO[C@]12C=C(Br)[C@@H](C[C@@H]1c1cccc(C)c1)[C@@]1(CO1)C2=O`
no

Next molecule up: `C=C(COC)C(=O)CC[C@@H](OC(=O)c1cccnc1)c1ccc(OCCO)cc1`
yes

* * *

Below, each of the compounds is paired with its reported composite z-score value.
Test: small-molecule microarray binders of probe aCHRDL2, primary screen, biochemical, biotinylated probe, 635/667 nm fluorescence (AID 1100)
Settings: higher = more signal
Reply with the value as a number alone.

Compound	composite z-score
C=C[C@@H](OC)[C@H](OC(=O)Nc1ccc(SC)cc1)c1ccc(O)c(F)c1	0.293
CCCNC(=O)[C@@]1(c2ccc([N+](=O)[O-])cc2)CC(=O)N(C2CCCCC2)[C@@H]1c1ccc(CO)cc1	0.39
COc1ccc(CCNC(=O)[C@@H]2c3ccccc3C(=O)N(Cc3cc(C(F)(F)F)cc(C(F)(F)F)c3)[C@H]2c2ccc(CO)cc2)cc1	0.716
CC(C)[Si](C#C[Si](C(C)C)(C(C)C)C(C)C)(O[C@H](C)c1cn([C@H](CO)Cc2ccccc2)nn1)C(C)C	-0.316
CC(C)(C)OC(=O)CC[C@@]1(C(=O)NCc2ccccc2)N=C(c2ccc(OCCCO)cc2)O[C@@H]1c1ccccc1N=[N+]=[N-]	1.29

Reported composite z-score for `CN(C)CCCNC(=O)[C@@]1(c2ccc([N+](=O)[O-])cc2)CC(=O)N(CC23CC4CC(CC(C4)C2)C3)[C@@H]1c1ccc(CO)cc1I` : what is it?
0.407

Next compound up: CCOC(=O)C1CCCCN1 (centres undefined)
-0.193

Next compound up: `O=C(N1CCCCC1)[C@@]1(CCS(=O)(=O)c2ccccc2)COC(c2ccc(OCCCO)cc2)=N1`
1.21

Next compound up: `COc1cc(CO)cc(I)c1O[C@H]1C=C(C(=O)NCCO)C[C@@H](NCc2ccc(F)cc2)[C@@H]1O`
-0.162

* * *

Test system: PRMT1 (protein arginine N-methyltransferase 1)
Test: PRMT1 binders on small-molecule microarrays, primary screen, biochemical, small-molecule microarray, 635 nm fluorescence (AID 1088);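 also: binding of Prmt1 protein to compounds spotted on small-molecule microarray slides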
Settings: small-molecule microarray binding, higher = more signal
Below, each of the compounds is paired with its reported composite z-score value.
Reply with the value as a number alone.

Compound	System	Measured Number
CC(C)N1C(=O)c2ccccc2[C@@H](C(=O)NC2CC2)[C@@H]1c1ccc(CO)cc1	PRMT1 (protein arginine N-methyltransferase 1)	0.672

Lab note: need composite z-score for `COCCOC(=O)N1C(=O)[C@@]2(c3cc(C#Cc4ccc(OC)cc4)ccc31)[C@H](c1ccc(O)cc1)N1[C@H](c3ccccc3)[C@H](c3ccccc3)OC(=O)[C@H]1[C@@H]2C(=O)N1CCCCCCC1` on PRMT1 (protein arginine N-methyltransferase 1), anyone have it?
0.632

Next compound up: OCC1CC(c2ccccc2)=NO1 (configuration not stated)
-1.11

Next compound up: CC(C)(C)N1CC=CC23O[C@@H]4C=CCCOC(=O)C4[C@H]2C(=O)N(CCO)[C@@H]3C1=O (some centres not stated)
0.13

Next compound up: `CCOC(=O)c1ccc(NC(=O)O[C@H]2[C@H](OC(=O)Nc3ccc4c(c3)OCO4)[C@H](OC(=O)Nc3ccc4c(c3)OCO4)[C@@H](OC)O[C@@H]2CO)cc1`
1.54

Next compound up: `COCCOC(=O)N1C(=O)[C@@]2(c3cc(C#CCNC(N)=O)ccc31)[C@H](C(=O)N1CCc3cc(OC)c(OC)cc3C1)[C@H]1C(=O)O[C@H](c3ccccc3)[C@H](c3ccccc3)N1[C@@H]2c1ccccc1OCCO`
1.37

Next compound up: `Cc1ccc(S[C@]2(C(=O)O)CC(=O)N(Cc3cc(C(F)(F)F)cc(C(F)(F)F)c3)[C@@H]2c2ccc(CO)cc2)cc1`
-0.224
